- EXPERIMENTAL_TARGET: cAMP phosphodiesterase (Canis familiaris)
- ASSAY_NAME: Inhibition of canine cardiac cAMP phosphodiesterase (cAMP-PDE)
Label Criterion met when IC50 is strictly below 30 µM; at or above that, label Criterion not met.

COMPOUND: CCc1[nH]c(O)nc1C(=O)c1ccc(-n2ccnc2C(C)C)cc1
CLASS_ASSIGNMENT: Criterion not met
--
COMPOUND: CCc1[nH]c(O)nc1C(=O)c1ccc(-n2cc(C)nc2CC)cc1
CLASS_ASSIGNMENT: Criterion met
--
COMPOUND: Cc1cn(-c2ccc(C(=O)c3[nH]c(O)nc3C)cc2)cn1
CLASS_ASSIGNMENT: Criterion not met
--
COMPOUND: Cc1nc(=O)c(C#N)c(NCc2cccnc2)[nH]1 [PELRINONE]
CLASS_ASSIGNMENT: Criterion met
--
COMPOUND: CCc1[nH]c(O)nc1C(=O)c1ccc(-n2ccnc2C)cc1C
CLASS_ASSIGNMENT: Criterion not met

Does the reported IC50 of Cc1[nH]c(O)nc1C(=O)c1ccc(-n2cnc3ccccc32)cc1 stay below 30 µM?
Criterion met
